As shown below, each of these binders has a reported Kd value.
- system.name: human Siglec-15 V-set domain (human) (UniProt Q6ZMC9)
- assay.details: SPR (Biacore T200), antibody captured via anti-human IgG, antigen as analyte, same manner as 10-1
Only the number, expressed in pM, is required.

binder	unit.abbreviation	value.reported
h#24A3-H2c/L1 (antibody, human IgG2, kappa, V domains shown) VH: QVQLVQSGAEVKKPGASVKVSCKASGYTFPRYDVSWVRQAPGQGLEWIGVIHPGSGGTGYNEKFKARVTITADTSTSTAYMELSSLRSEDTAVYYCARRGLNKGYWFFDFWGQGTLVTVSS VL: DIVMTQSPDSLAVSLGERATINCKASQNVGSNVDWYQQKPGQPPKLLIYESTNRYTGVPDRFSGSGSGTDFTLTISSLQAEDVAVYYCMQSNFFPFTFGQGTKVEIKR	pM	10

Next up:
Per the record, h#24A3-H2e/L1 (antibody, human IgG2, kappa, V domains shown) VH: QVQLVQSGAEVKKPGASVKVSCKASGYTFPRYDVSWVRQAPGQGLEWMGVIHPGSGGTGYNEKFKARVTITVDTSTSTAYMELSSLRSEDTAVYYCARRGLNKGYWFFDFWGQGTLVTVSS VL: DIVMTQSPDSLAVSLGERATINCKASQNVGSNVDWYQQKPGQPPKLLIYESTNRYTGVPDRFSGSGSGTDFTLTISSLQAEDVAVYYCMQSNFFPFTFGQGTKVEIKR has Kd of 6.9

Cited source for all entries: patent US20150125470A1
